Data provenance: ChEMBL document CHEMBL5291721

MEASURED ENDPOINT: AC50

Value wanted: AC50 (Adenosine receptor A3 (Homo sapiens)) of entry COc1ccc(CCC(C)NCC(O)c2ccc(O)c([S+](C)[O-])c2)cc1 (centres undefined)
> 30 µM

Value wanted: AC50 (Adenosine receptor A3 (Homo sapiens)) of entry Nc1nc(-n2cc(C(=O)O)c(=O)c3cc(F)c(N4CC(O)C4)c(Cl)c32)c(F)cc1F
> 3 µM

Value wanted: AC50 (Adenosine receptor A3 (Homo sapiens)) of entry C#C[C@]1(O)CC[C@H]2[C@@H]3CCC4=CC(=O)CC[C@@H]4[C@H]3CC[C@@]21CC
> 30 µM

Value wanted: AC50 (Adenosine receptor A3 (Homo sapiens)) of entry CN(Cc1cc(Br)cc(Br)c1N)C1CCCCC1
27.9 µM

---

Assign AC50 to each entry below.
target: Adenosine receptor A3 (Homo sapiens); note: assay procedure not described here
Sequence (P0DMS8 whole entry): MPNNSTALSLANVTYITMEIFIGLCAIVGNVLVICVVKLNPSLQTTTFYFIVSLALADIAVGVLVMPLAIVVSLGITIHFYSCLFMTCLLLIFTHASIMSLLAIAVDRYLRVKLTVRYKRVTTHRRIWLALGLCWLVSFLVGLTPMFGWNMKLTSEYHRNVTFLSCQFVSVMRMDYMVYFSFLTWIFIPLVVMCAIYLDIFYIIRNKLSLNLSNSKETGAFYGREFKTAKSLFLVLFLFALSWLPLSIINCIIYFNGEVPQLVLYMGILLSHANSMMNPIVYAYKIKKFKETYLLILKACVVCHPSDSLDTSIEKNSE

Consider the compound O=C(O)CCCN1CCC(O[C@@H](c2ccc(Cl)cc2)c2ccccn2)CC1 and give its measured AC50.
> 30 µM

Consider the compound CN(C)C(=O)Oc1ccc[n+](C)c1 and give its measured AC50.
> 30 µM

Consider the compound CCc1ccc(CCOc2ccc(CC3SC(=O)NC3=O)cc2)nc1 (stereo unspecified) and give its measured AC50.
> 30 µM

Consider the compound CCC1C(C)=NN=C(c2ccc(OC)c(OC)c2)c2cc(OC)c(OC)cc21 (stereo unspecified) and give its measured AC50.
> 30 µM

Consider the compound CCOC(=O)N[C@@H]1CC[C@@H]2[C@@H](C1)C[C@H]1C(=O)O[C@H](C)[C@H]1[C@H]2/C=C/c1ccc(-c2cccc(F)c2)cn1 and give its measured AC50.
2.43 µM

Consider the compound CC(O)CO (stereo unspecified) and give its measured AC50.
> 30 µM

Consider the compound Cc1c(O)cccc1C(=O)N[C@@H](CSc1ccccc1)[C@H](O)CN1C[C@H]2CCCC[C@H]2C[C@H]1C(=O)NC(C)(C)C and give its measured AC50.
2.84 µM

Consider the compound CCC1(c2cccc(O)c2)CCCCN(C)C1 (stereo unspecified) and give its measured AC50.
> 30 µM

Consider the compound Oc1c(I)cc(I)c2cccnc12 and give its measured AC50.
> 3 µM

Consider the compound CC[C@@H]1/C=C(\C)C[C@H](C)C[C@H](OC)[C@H]2O[C@@](O)(C(=O)C(=O)N3CCCC[C@H]3C(=O)O[C@H](/C(C)=C/[C@@H]3CC[C@H](Cl)[C@H](OC)C3)[C@H](C)[C@@H](O)CC1=O)[C@H](C)C[C@@H]2OC and give its measured AC50.
5.19 µM

Consider the compound CS(=O)(=O)c1ccc([C@@H](O)[C@@H](CO)NC(=O)C(Cl)Cl)cc1 and give its measured AC50.
> 30 µM

Consider the compound CN1CCC2=C(C1)c1ccccc1Cc1ccccc12 and give its measured AC50.
> 30 µM

Consider the compound CCOC(=O)C(c1c(O)c2ccccc2oc1=O)c1c(O)c2ccccc2oc1=O [ETHYL BISCOUMACETATE] and give its measured AC50.
17.3 µM

Consider the compound CC(=O)OC[C@H]1O[C@@H](n2ccc(=O)[nH]c2=O)[C@H](OC(C)=O)[C@@H]1OC(C)=O [URIDINE TRIACETATE] and give its measured AC50.
> 30 µM

Consider the compound CCCCN(CCCC)CCCOC(=O)c1ccc(N)cc1 and give its measured AC50.
> 30 µM

Consider the compound CC1(C)O[C@@H]2C[C@H]3[C@@H]4C[C@H](F)C5=CC(=O)CC[C@]5(C)[C@H]4[C@@H](O)C[C@]3(C)[C@]2(C(=O)CO)O1 [FLURANDRENOLIDE] and give its measured AC50.
> 30 µM

---

Molecular target: Cholecystokinin receptor type A (Homo sapiens); note: assay procedure not described here
Sequence (P32238 whole entry): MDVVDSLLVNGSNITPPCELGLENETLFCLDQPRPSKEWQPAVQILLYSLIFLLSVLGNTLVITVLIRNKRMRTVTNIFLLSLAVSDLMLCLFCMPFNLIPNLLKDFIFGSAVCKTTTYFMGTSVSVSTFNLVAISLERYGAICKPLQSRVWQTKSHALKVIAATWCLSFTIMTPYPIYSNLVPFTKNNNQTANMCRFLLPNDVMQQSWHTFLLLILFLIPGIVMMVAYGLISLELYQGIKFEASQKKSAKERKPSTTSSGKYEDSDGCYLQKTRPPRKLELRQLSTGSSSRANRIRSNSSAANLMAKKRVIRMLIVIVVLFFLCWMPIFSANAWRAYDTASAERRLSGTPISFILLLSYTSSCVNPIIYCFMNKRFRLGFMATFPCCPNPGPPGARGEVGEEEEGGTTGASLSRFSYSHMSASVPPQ
Assign AC50 to each entry below.

Value wanted: AC50 (Cholecystokinin receptor type A (Homo sapiens)) of entry COc1ccccc1OCC(O)COC(N)=O (centres undefined) [METHOCARBAMOL]
> 10 µM

Value wanted: AC50 (Cholecystokinin receptor type A (Homo sapiens)) of entry CCCCOc1cc(C(=O)NCCN(CC)CC)c2ccccc2n1 [DIBUCAINE]
> 30 µM

Value wanted: AC50 (Cholecystokinin receptor type A (Homo sapiens)) of entry NC(CO)C(=O)NNCc1ccc(O)c(O)c1O (centres undefined) [BENSERAZIDE]
> 30 µM

Value wanted: AC50 (Cholecystokinin receptor type A (Homo sapiens)) of entry CCCCCCCCCCCC[N+](C)(C)CCOc1ccccc1 [DOMIPHEN]
> 30 µM

Value wanted: AC50 (Cholecystokinin receptor type A (Homo sapiens)) of entry CN1CCCN=C1COC(=O)C(O)(c1ccccc1)C1CCCCC1 (centres undefined) [OXYPHENCYCLIMINE]
> 10 µM

Value wanted: AC50 (Cholecystokinin receptor type A (Homo sapiens)) of entry CCCCCCCCOc1ccccc1C(=O)Nc1ccc(C(=O)OCC[N+](C)(CC)CC)cc1 [OTILONIUM BROMIDE]
> 30 µM

Value wanted: AC50 (Cholecystokinin receptor type A (Homo sapiens)) of entry CCCCCN(C)CCC(O)(P(=O)(O)O)P(=O)(O)O [IBANDRONIC ACID]
> 30 µM

Value wanted: AC50 (Cholecystokinin receptor type A (Homo sapiens)) of entry CCCCCCC(C)(C)c1cc(O)c2c(c1)OC(C)(C)C1CCC(=O)CC21 (centres undefined) [NABILONE]
> 30 µM

Value wanted: AC50 (Cholecystokinin receptor type A (Homo sapiens)) of entry CN(CCOc1ccc(NS(C)(=O)=O)cc1)CCc1ccc(NS(C)(=O)=O)cc1 [DOFETILIDE]
> 30 µM

Value wanted: AC50 (Cholecystokinin receptor type A (Homo sapiens)) of entry C[C@@H]1O[C@@H]1P(=O)(O)O [FOSFOMYCIN]
> 10 µM

Value wanted: AC50 (Cholecystokinin receptor type A (Homo sapiens)) of entry CC(C)(Oc1ccc(C2CC2(Cl)Cl)cc1)C(=O)O (centres undefined) [CIPROFIBRATE]
> 30 µM

Value wanted: AC50 (Cholecystokinin receptor type A (Homo sapiens)) of entry O=C(Cn1ccnc1[N+](=O)[O-])NCc1ccccc1 [BENZNIDAZOLE]
> 30 µM

Value wanted: AC50 (Cholecystokinin receptor type A (Homo sapiens)) of entry COc1c(C)c2c(c(O)c1C/C=C(\C)CCC(=O)OCCN1CCOCC1)C(=O)OC2 [MYCOPHENOLATE MOFETIL]
> 30 µM

Value wanted: AC50 (Cholecystokinin receptor type A (Homo sapiens)) of entry Cc1c(O)c(=O)ccn1C [DEFERIPRONE]
> 30 µM

Value wanted: AC50 (Cholecystokinin receptor type A (Homo sapiens)) of entry O=C(O)CCn1c2c(c3ccccc31)C[C@H](NS(=O)(=O)c1ccc(F)cc1)CC2 [RAMATROBAN]
24.8 µM

Value wanted: AC50 (Cholecystokinin receptor type A (Homo sapiens)) of entry COc1ccc2c(c1)C(=O)N(CCc1ccc(S(=O)(=O)NC(=O)NC3CCCCC3)cc1)C(=O)C2(C)C [GLIQUIDONE]
> 30 µM

Value wanted: AC50 (Cholecystokinin receptor type A (Homo sapiens)) of entry Nc1nc2ccc(OC(F)(F)F)cc2s1 [RILUZOLE]
> 30 µM

Value wanted: AC50 (Cholecystokinin receptor type A (Homo sapiens)) of entry CCCOc1ccc(C(=O)OCCN(CC)CC)cc1N [PROPARACAINE]
> 30 µM

Value wanted: AC50 (Cholecystokinin receptor type A (Homo sapiens)) of entry CS(=O)(=O)c1ccc([C@@H](O)[C@@H](CO)NC(=O)C(Cl)Cl)cc1 [THIAMPHENICOL]
> 30 µM

---

Biological target: Alpha-2A adrenergic receptor (Homo sapiens); note: assay procedure not described here
Sequence (P08913 whole entry): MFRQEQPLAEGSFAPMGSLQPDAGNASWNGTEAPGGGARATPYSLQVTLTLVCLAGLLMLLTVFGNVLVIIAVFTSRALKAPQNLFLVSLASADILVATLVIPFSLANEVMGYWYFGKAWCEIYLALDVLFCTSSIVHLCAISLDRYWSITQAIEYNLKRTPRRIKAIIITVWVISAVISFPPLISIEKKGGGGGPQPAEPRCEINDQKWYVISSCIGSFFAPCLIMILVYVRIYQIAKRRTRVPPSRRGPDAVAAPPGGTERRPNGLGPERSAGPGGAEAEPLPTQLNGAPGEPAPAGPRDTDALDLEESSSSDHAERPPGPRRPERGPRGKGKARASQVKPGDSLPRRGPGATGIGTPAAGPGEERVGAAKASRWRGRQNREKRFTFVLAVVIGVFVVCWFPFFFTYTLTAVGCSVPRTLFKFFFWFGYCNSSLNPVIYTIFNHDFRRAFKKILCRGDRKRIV
Assay type: functional, cell-based
MEASURED ENDPOINT: AC50

Consider the compound C#C[C@]1(O)CC[C@H]2[C@@H]3CCC4=CCCC[C@@H]4[C@H]3CC[C@@]21C and give its measured AC50.
> 30 µM

Consider the compound CCN(CC)CCNC(=O)c1cc(Cl)c(N)cc1OC [METOCLOPRAMIDE] and give its measured AC50.
> 10 µM

Consider the compound NC[C@H]1O[C@H](O[C@H]2[C@H](O)[C@@H](O[C@H]3O[C@H](CO)[C@@H](O)[C@H](N)[C@H]3O)[C@H](N)C[C@@H]2N)[C@H](O)[C@@H](O)[C@@H]1O and give its measured AC50.
> 10 µM

Consider the compound COC(=O)[C@H]1[C@@H](OC(=O)c2ccccc2)C[C@@H]2CC[C@H]1N2C and give its measured AC50.
> 30 µM

Consider the compound CCC(=O)OCC(=O)[C@@]1(OC(=O)CC)[C@H](C)C[C@H]2[C@H]3[C@H]([C@@H](O)C[C@@]21C)[C@@]1(C)C=CC(=O)C=C1C[C@H]3Cl [ALCLOMETASONE DIPROPIONATE] and give its measured AC50.
> 30 µM

Consider the compound C[C@@H]1O[C@@H]1P(=O)(O)O and give its measured AC50.
> 10 µM

Consider the compound NC[C@H]1CC[C@H](C(=O)O)CC1 and give its measured AC50.
> 10 µM

Consider the compound Cc1nc2ccc(CN(C)c3ccc(C(=O)N[C@@H](CCC(=O)O)C(=O)O)s3)cc2c(=O)[nH]1 and give its measured AC50.
> 30 µM
